The reported numbers originate from the supplement of paper PMC10567573.

B1: CPOX (parent)
chain: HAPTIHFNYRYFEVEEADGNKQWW

Variants of: B1
Test: protein stability index of a GFP-peptide fusion (GPS, HEK-293T) (PSI 1-6); higher = more stable;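 also: lentivirally expressed fusions sorted by FACS into six bins by GFP to DsRed ratio, PSI derived from sequencing read proportions per bin multiplied by bin number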
Conditions: c terminus: a fixed tail appended
Please mark TRUE if the recorded protein stability index is equal to or greater than 2, and FALSE if it falls below.

// query For this variant, is measured protein stability index 2 or higher? HAPTIHFNYRYFEVEEADGNFQWW [K21F]
// result FALSE

More entries:
// query Check this variant for protein stability index at or above 2: HAPTIHFNYRDFEVEEADGNKQWW [Y11D]
// result TRUE

// query Is reported protein stability index greater than or equal to 2 here: HAPTIHFNYRYFEVEDADGNKQWW [E16D]
// result TRUE

// query Could you verify whether the entry HAPTIHFNARYFEVEEADGNKQWW [Y9A] shows protein stability index of no less than 2?
// result TRUE

// query // inclusive: protein stability index at least 2? input: HAPTIHFNYRYNEVEEADGNKQWW [F12N]
// result TRUE

// query Check this variant for protein stability index at or above 2: HAPYIHFNYRYFEVEEADGNKQWW [T4Y]
// result FALSE

// query Decide: is the reported value of protein stability index for TAPTIHFNYRYFEVEEADGNKQWW [H1T] equal to or greater than 2?
// result TRUE

// query Decide: is the reported value of protein stability index for HAPTIHFNYRYFEVEAADGNKQWW [E16A] equal to or greater than 2?
// result FALSE

// query Reported protein stability index reaches at least 2 for HAPTIHDNYRYFEVEEADGNKQWW [F7D] ?
// result TRUE

// query Hi, just wondering whether HAPTIHFNYRYFKVEEADGNKQWW [E13K] shows protein stability index of 2 or higher.
// result FALSE
